target: holoenzyme CK2α2β2 (Homo sapiens); construct: made in house; host or cells: E. coli BL21(DE3); experiment: Capillary electrophoresis (CE) assay, enzyme inhibition of the holoenzyme; format: biochemical; conditions: c=10 μM; CE assay; mean±SD of three experiments; n.s.=not significant; read-out: Inhibition (%) of CK2α2β2
Sequence (P68400 whole entry): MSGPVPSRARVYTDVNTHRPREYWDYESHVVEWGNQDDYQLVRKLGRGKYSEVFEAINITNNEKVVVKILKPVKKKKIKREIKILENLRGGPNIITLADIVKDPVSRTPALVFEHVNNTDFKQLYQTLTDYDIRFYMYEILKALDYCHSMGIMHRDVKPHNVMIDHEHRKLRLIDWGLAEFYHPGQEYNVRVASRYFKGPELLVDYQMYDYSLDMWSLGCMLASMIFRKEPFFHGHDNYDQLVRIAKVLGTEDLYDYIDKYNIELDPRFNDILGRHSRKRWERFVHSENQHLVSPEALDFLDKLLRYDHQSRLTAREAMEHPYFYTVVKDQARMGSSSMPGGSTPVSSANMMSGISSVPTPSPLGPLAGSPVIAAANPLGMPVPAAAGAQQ
propertyLabel: inhibition at 10 µM (%)
Give just the number in %; leave the unit off.

Exam item: For holoenzyme CK2α2β2 (Homo sapiens), provide inhibition at 10 µM of COc1cc([C@H]2c3c([nH]c4ccccc34)[C@@H](C(=O)N3C(=O)OC[C@@H]3Cc3ccccc3)[C@H]3C(=O)N(C)C(=O)[C@@H]23)cc(OC)c1OC [(+)‐10 a] please.
Marked response: 26

Exam item: Further, for COc1cc([C@H]2c3c([nH]c4ccccc34)[C@@H](C(=O)N3C(=O)OC[C@H]3Cc3ccccc3)[C@H]3C(=O)N(C)C(=O)[C@@H]23)cc(OC)c1OC [(+)‐10 b] ?
Marked response: 31

Exam item: What would you report for COc1cc([C@H]2c3c([nH]c4ccccc34)[C@@H](C(=O)N3C(=O)OC[C@@H]3Cc3ccccc3)[C@H]3C(=O)NC(=O)[C@@H]23)cc(OC)c1OC [(+)‐9 a] ?
Marked response: 20

Exam item: Then what about the compound COc1cc([C@H]2c3c([nH]c4ccccc34)[C@@H](C(=O)N3C(=O)OC[C@H]3Cc3ccccc3)[C@H]3C(=O)NC(=O)[C@@H]23)cc(OC)c1OC [(+)‐9 b] ?
Marked response: 12

Exam item: COc1cc([C@@H]2c3c([nH]c4ccccc34)[C@H](C(=O)N3C(=O)OC[C@H]3Cc3ccccc3)[C@@H]3C(=O)N(C)C(=O)[C@H]23)cc(OC)c1OC [(−)‐10 a] , same question.
Marked response: 29

Exam item: # repeat for COc1cc([C@@H]2c3c([nH]c4ccccc34)[C@H](C(=O)N3C(=O)OC[C@@H]3Cc3ccccc3)[C@@H]3C(=O)N(C)C(=O)[C@H]23)cc(OC)c1OC [(−)‐10 b]
Marked response: 15
